These measurements were taken from the PolyMetriX glass transition set.

readoutName: glass transition temperature (°C)
# unit: °C | format: bare number

Entry *c1c(C)cc(C)c(N2C(=O)c3ccc(S(=O)(=O)c4ccc5c(c4)C(=O)N(*)C5=O)cc3C2=O)c1C (repeat unit) ; glass transition temperature = 418.00

Entry *O[Si](*)(C)CCCCCCCCCCC(=O)Oc1ccc(-c2ccc(OC(=O)c3ccc(OCC)cc3)cc2)cc1 (repeat unit) ; glass transition temperature = 103.40

Entry *c1ccc2oc(-c3ccc4oc5ccc(-c6nc7cc(C(*)(C(F)(F)F)C(F)(F)F)ccc7o6)cc5c4c3)nc2c1 (repeat unit) ; glass transition temperature = 195.00

Entry *CNC(=O)OCC(OC(=O)NCc1ccc(C(CCC)c2ccc(*)o2)o1)c1ccco1 (repeat unit) ; glass transition temperature = 43.00

* * *

readoutName: glass transition temperature (°C)
# unit: °C | format: bare number

Entry *Oc1ccc(CC(NC(=O)CCc2ccc(OC(=O)COCC(*)=O)cc2)C(=O)OCC(C)C)cc1 (repeat unit) ; glass transition temperature = 72.00

Entry */C(=C(/*)c1ccc(C(C)(C)C)cc1)c1ccccc1 (repeat unit) ; glass transition temperature = 200.00

Entry *CC(C)(CO*)COCCOCCOCCOC (repeat unit) ; glass transition temperature = -18.00

Entry *CCN(*)C(=O)c1ccccc1 (repeat unit) ; glass transition temperature = 111.00

Entry *c1ccc(Cc2ccc(N3C(=O)c4ccc(Oc5ccc(Oc6ccc7c(c6)C(=O)N(*)C7=O)cc5)cc4C3=O)cc2)cc1 (repeat unit) ; glass transition temperature = 259.00

Entry *C(=O)c1ccc2c(c1)C(=O)N(c1ccc(Oc3cc4ccccc4cc3Oc3ccc(N4C(=O)c5ccc(*)cc5C4=O)cc3)cc1)C2=O (repeat unit) ; glass transition temperature = 246.00

Entry *CC(*)c1cc(Br)ccc1OC(C)C (repeat unit) ; glass transition temperature = 35.00

Entry *c1ccc(C(=O)OCCCCCCOC(=O)c2ccc(-c3nnc(*)s3)cc2)cc1 (repeat unit) ; glass transition temperature = 125.00

Entry *CCCCNC(=O)CCCCC(=O)N* (repeat unit) ; glass transition temperature = 58.00

Entry *c1ccc(Oc2ccc(Oc3ccc(N4C(=O)C(c5ccccc5)=C(c5ccc(C6=C(c7ccccc7)C(=O)N(*)C6=O)cc5)C4=O)cc3)cc2)cc1 (repeat unit) ; glass transition temperature = 267.00

Entry *c1ccc(C(c2ccc(N3C(=O)c4cc(-c5ccc(C(C)(C)C)cc5)c(-c5cc6c(cc5-c5ccc(C(C)(C)C)cc5)C(=O)N(*)C6=O)cc4C3=O)cc2)(C(F)(F)F)C(F)(F)F)cc1 (repeat unit) ; glass transition temperature = 381.00

Entry *c1ccc(Oc2ccc(-c3cc(-c4ccccc4)c4cc(Oc5ccc6nc(*)c(-c7ccccc7)c(-c7ccccc7)c6c5)ccc4n3)cc2)cc1 (repeat unit) ; glass transition temperature = 305.00

Entry *CC(*)(C)C(=O)OCc1ccc2c(c1)c1ccccc1n2CCCCCC (repeat unit) ; glass transition temperature = 73.00

Entry *Nc1cc(NC(=O)c2cc(OCCN(C)c3ccc(C#N)cc3)cc(C(*)=O)c2)cc(C(=O)OCCN(C)c2ccc(S(=O)(=O)C(F)(F)C(F)(F)C(F)(F)C(F)(F)C(F)(F)C(F)(F)C(F)(F)C(F)(F)F)cc2)c1 (repeat unit) ; glass transition temperature = 165.00

Entry *Oc1ccc(S(=O)(=O)c2ccc(Oc3ccc(/C=C4\CCCC/C(=C\c5ccc(*)cc5)C4=O)cc3)cc2)cc1 (repeat unit) ; glass transition temperature = 186.00

* * *

readoutName: glass transition temperature (°C)
# unit: °C | format: bare number

Entry *Oc1cccc(C(=O)Nc2ccc(S(=O)(=O)c3ccc(NC(=O)c4cccc(Oc5nc(*)nc(Sc6ccccc6)n5)c4)cc3)cc2)c1 (repeat unit) ; glass transition temperature = 304.00

Entry *c1ccc(Oc2ccc(C(C)(C)c3ccc(Oc4ccc(-c5nnc(*)n5-c5ccc(S(C)(=O)=O)cc5)cc4)cc3)cc2)cc1 (repeat unit) ; glass transition temperature = 230.00

Entry *c1ccc2c(c1)C(=O)N(c1ccc(Oc3ccc(C(c4ccc(Oc5ccc(N6C(=O)c7ccc(C(*)(C(F)(F)F)C(F)(F)F)cc7C6=O)cc5C(F)(F)F)cc4)(C(F)(F)F)C(F)(F)F)cc3)c(C(F)(F)F)c1)C2=O (repeat unit) ; glass transition temperature = 234.00

* * *

Threshold rule: glass transition temperature greater than or equal to 100 °C is True; below that, False.

query: Quick check: does *CCCCC(C)CCn1c(=O)c2cc3c(=O)n(*)c(=O)c3cc2c1=O (repeat unit) have glass transition temperature greater than or equal to 100 °C?
result: True

query: Quick check: does *Oc1ccc(NC(=O)c2ccc(Oc3ccc(C(C)(C)c4ccc(C(C)(C)c5ccc(Oc6ccc(C(=O)Nc7ccc(*)cc7)cc6)cc5)cc4)cc3)cc2)cc1 (repeat unit) have glass transition temperature greater than or equal to 100 °C?
result: True

query: Quick check: does *CC(*)(C)C(=O)OCC1CCC1 (repeat unit) have glass transition temperature greater than or equal to 100 °C?
result: True

query: Quick check: does *CCCCCCCCCC[N+](*)(C)C (repeat unit) have glass transition temperature greater than or equal to 100 °C?
result: False

query: Quick check: does *CC(*)(C)C(=O)OCCCCCCC(F)(F)C(F)(F)C(F)(F)C(F)(F)C(F)(F)C(F)(F)C(F)(F)C(F)(F)C(F)(F)C(F)(F)C(F)(F)C(F)(F)F (repeat unit) have glass transition temperature greater than or equal to 100 °C?
result: False

query: Quick check: does *CCCCCCCCCCCCNC(=O)CCc1ccc(CCC(=O)N*)cc1 (repeat unit) have glass transition temperature greater than or equal to 100 °C?
result: False

query: Quick check: does */C=C/CCCCCCCCCC* (repeat unit) have glass transition temperature greater than or equal to 100 °C?
result: False

query: Quick check: does *c1ccc(Oc2ccc(-c3c(-c4ccccc4)c4c(c(-c5ccccc5)c3-c3ccccc3)C(=O)N(c3cccc(N5C(=O)c6c(c(-c7ccccc7)c(-c7ccccc7)c(*)c6-c6ccccc6)C5=O)c3)C4=O)cc2)cc1 (repeat unit) have glass transition temperature greater than or equal to 100 °C?
result: True

query: Quick check: does *CCCCCCCCCCc1ccc(-c2c(-c3ccccc3)cc(-c3cccc(-c4cc(-c5ccccc5)c(-c5ccc(*)cc5)c(-c5ccccc5)c4-c4ccccc4)c3)c(-c3ccccc3)c2-c2ccccc2)cc1 (repeat unit) have glass transition temperature greater than or equal to 100 °C?
result: True

query: Quick check: does *Nc1cc(NC(=O)Nc2ccc(Cc3ccc(NC(*)=O)cc3)cc2)cc(C(=O)Nc2ccc3c(c2)C(=O)c2ccccc2C3=O)c1 (repeat unit) have glass transition temperature greater than or equal to 100 °C?
result: True

query: Quick check: does *CC(*)c1ccc(OCCCC)cc1 (repeat unit) [Poly(p-n-butoxy styrene) ] have glass transition temperature greater than or equal to 100 °C?
result: False

query: Quick check: does *c1ccc2c(c1)C(=O)N(c1ccc(-c3cc(-c4ccc(OCCCC#N)cc4)cc(-c4ccc(N5C(=O)c6ccc(C(*)(C(F)(F)F)C(F)(F)F)cc6C5=O)cc4)n3)cc1)C2=O (repeat unit) have glass transition temperature greater than or equal to 100 °C?
result: True

query: Quick check: does *CC(*)(C)c1ccccc1 (repeat unit) [poly(alpha-methylstyrene)] have glass transition temperature greater than or equal to 100 °C?
result: True

query: Quick check: does *Oc1ccc(C(c2ccccc2)c2ccc(OC(*)=O)cc2C)c(C)c1 (repeat unit) have glass transition temperature greater than or equal to 100 °C?
result: True

* * *

readoutName: glass transition temperature (°C)
# unit: °C | format: bare number

Entry *CC(C)(C)CS(=O)(=O)CC(C)(C)COC(=O)Nc1ccc(Cc2ccc(NC(=O)O*)cc2)cc1 (repeat unit) ; glass transition temperature = 90.00

Entry *C(=O)c1ccc2c(c1)C(=O)N(c1ccc(-c3cc(-c4ccc(OCCCC#N)cc4)cc(-c4ccc(N5C(=O)c6ccc(*)cc6C5=O)cc4)n3)cc1)C2=O (repeat unit) ; glass transition temperature = 342.00

Entry *CC(*)c1ccccn1 (repeat unit) ; glass transition temperature = 104

Entry *c1ccc(OC(=O)c2cccc(C(=O)Oc3ccc(C4(*)OC(=O)c5ccccc54)cc3)c2)cc1 (repeat unit) ; glass transition temperature = 282.50

Entry *CC(*)C(=O)OC1CC(C)CC(C)(C)C1 (repeat unit) ; glass transition temperature = 15.00

Entry *O[Si](*)(C)CCc1cc(C(=O)Oc2ccc(OCCCCCCCCCCCC)cc2)ccc1-c1ccc(C(=O)Oc2ccc(OCCCCCCCCCCCC)cc2)cc1 (repeat unit) ; glass transition temperature = 76.00

Entry *c1ccc(Cc2ccc(N3C(=O)c4ccc([Si](C)(C)c5ccc6c(c5)C(=O)N(*)C6=O)cc4C3=O)cc2)cc1 (repeat unit) ; glass transition temperature = 280.00

Entry *CC(*)C(=O)OCCCCCCCOC(=O)c1ccc(OC(=O)c2ccc(C#N)cc2)cc1 (repeat unit) ; glass transition temperature = 20.00

Entry *CCOCCOC(=O)/C=C/C(=O)NCCCCCCNC(=O)/C=C/C(=O)O* (repeat unit) ; glass transition temperature = 76.00

Entry *c1ccccc1C(=O)Oc1ccc2c(*)c3ccc(=O)cc-3oc2c1 (repeat unit) ; glass transition temperature = 250.00

Entry *CCCCN1C(=O)c2ccc(C(=O)Oc3ccc(-c4ccc(OC(=O)c5ccc6c(c5)C(=O)N(*)C6=O)cc4)cc3)cc2C1=O (repeat unit) ; glass transition temperature = 126.00

Entry *CC(O)COC(=O)CCCCCCCCCCC(=O)OCC(O)COc1ccc(C(C)(C)c2ccc(O*)cc2)cc1 (repeat unit) ; glass transition temperature = 25.00

Entry *Oc1ccc(CC(NC(=O)CCc2ccc(OC(=O)CCCCCCCCC(*)=O)cc2)C(=O)OC)cc1 (repeat unit) ; glass transition temperature = 47.00

Entry *CC(*)c1ccc(COCCCCCC)cc1 (repeat unit) ; glass transition temperature = -20.00

Entry *c1ccc(C(c2ccccc2)c2ccc(N(c3ccc(C)cc3)c3ccc(-c4ccc(N(*)c5ccc(C)cc5)cc4)cc3)cc2)cc1 (repeat unit) ; glass transition temperature = 239.00

Entry *CCCCCCCCNC(=O)CCCCCCCCCCCCCCC(=O)N* (repeat unit) ; glass transition temperature = 52.00
